system: Erythrocyte; assay: Hemolytic activity in rabbit erythrocytes incubated for 1 hr; assay type: toxicity, cell-based, Oryctolagus cuniculus
readout: HC5
Returns: string containing the number followed by the unit.

Please review the entries below; each comes with its answer.
{"compoundStructureString": "CCCCCCCC[n+]1ccn(-c2ccc(C#Cc3ccc(-n4cc[n+](CCCCCCCC)c4)cc3)cc2)c1.[Br-].[Br-]", "reported": "200 µg/mL"}
{"compoundStructureString": "CCCCCC[n+]1ccn(-c2ccc(/C=C/c3ccc(-n4cc[n+](CCCCCC)c4)cc3)cc2)c1.[Br-].[Br-]", "reported": "600 µg/mL"}
{"compoundStructureString": "C(#Cc1ccc(-n2cc[n+](Cc3ccccc3)c2)cc1)c1ccc(-n2cc[n+](Cc3ccccc3)c2)cc1.[Br-].[Br-]", "reported": "200 µg/mL"}

Here is the next item to consider.
Challenge: Record lookup: for Erythrocyte, what HC5 belongs to CC[n+]1ccn(-c2ccc(C#Cc3ccc(-n4cc[n+](CC)c4)cc3)cc2)c1.[Br-].[Br-] ?
Response given: 8000 µg/mL
